Can you tell me cell viability for the items I'm about to list?
System: HCT116
Test: cell viability (CellTiter-Glo) relative to plate median (fraction of plate median); higher = more viable cells
Conditions: 5 µM; treatment time 24 h; reporter: TCF4/Wnt
The answer should be a number; do not append a unit.

Reported cell viability ( "CC1=C(/C=C/C(C)=C/C=C/C(C)=C/C(=O)O)C(C)(C)CCC1" ) = 0.973

// recorded cell viability for "COc1ccc2c(c1)OC/C(=C\c1ccc(OC)c(O)c1)C2=O" : 1.02

Entry under test: "CN(C)CCC=C1c2ccccc2COc2ccccc21" . Its cell viability was 1.01

response.value for "O=C(/C=C/c1ccc(O)c(O)c1)O[C@@H]1C[C@](O)(C(=O)O)C[C@@H](O)[C@H]1O" (field: cell viability) = 0.95

Measured cell viability, "CCN(CC)CCNC(=O)c1ccc(NC(C)=O)cc1" : 1.05

Entry "N[C@@H](Cc1ccc(O)c(O)c1)C(=O)O" ; cell viability = 1.03

====

Tested on: SW480
Experiment: TCF/Wnt firefly luciferase reporter signal relative to plate median (fraction of plate median); higher = higher Wnt reporter signal
Conditions: 5 µM; treatment time 24 h; reporter: 7TFP
Please mark t if the recorded TCF/Wnt firefly luciferase reporter signal is equal to or greater than 1, and f if it falls below.

q: Check if TCF/Wnt firefly luciferase reporter signal >= 1 (inclusive). Item: "CNc1ccccc1C(=O)N1CCc2c([nH]c3ccccc23)C1=O"
a: t

q: Is reported TCF/Wnt firefly luciferase reporter signal greater than or equal to 1 here: CCCNC(C)C(=O)Nc1ccccc1C (configuration not stated)
a: f

q: Hi, just wondering whether "CC[C@H]1OC(=O)[C@H](C)[C@@H](O[C@H]2C[C@@](C)(OC)[C@@H](O)[C@H](C)O2)[C@H](C)[C@@H](O[C@@H]2O[C@H](C)C[C@H](N(C)C)[C@H]2O)[C@](C)(O)C[C@@H](C)C(=O)[C@H](C)[C@@H](O)[C@]1(C)O" shows TCF/Wnt firefly luciferase reporter signal of 1 or higher.
a: f

====

Test system: SW480
Test: cell viability (CellTiter-Glo) relative to plate median (fraction of plate median); higher = more viable cells
Conditions: 5 µM; treatment time 24 h; reporter: 7TFP
Property: cell viability
When you answer, write just the number.

cell viability measured on O=C1c2c(O)cccc2C([C@@H]2O[C@H](CO)[C@@H](O)[C@H](O)[C@H]2O)c2cc(CO)cc(O)c21 (stereo partly specified) = 1.01

Just so you know, measured cell viability for "CC[C@H]1C(=O)OC[C@@H]1Cc1cncn1C" came out at 1.01

Briefly, cell viability measured for C=C1C2CC[C@@]3(C)[C@H](c4ccoc4)OC(=O)C[C@]13O[C@H]1CC(=O)C(C)(C)[C@H](C(O)C(=O)OC)[C@@]21C (stereo partly specified) : 0.991

Summary for this compound, "COc1cc2c(=O)c(-c3ccc4c(c3)OCO4)coc2c(OC)c1OC" : cell viability is 1

Record "CCN(CC)CCNC(=O)COc1ccc(OC)cc1" , field cell viability: 0.973

Per the records, this compound ( "COc1ccc2c(c1)OC[C@@H](Cc1ccc(OC)c(OC)c1)[C@H]2O" ) has cell viability equal to 0.993

====

I'd be grateful if you could share measured cell viability for these entries.
Tested on: DLD1
Test: cell viability (CellTiter-Glo) relative to plate median (fraction of plate median); higher = more viable cells
Conditions: 10 µM; treatment time 24 h; reporter: 7TFP
Answer field: number only, no words.

Per the record, "CCn1cc(-c2ccnc3[nH]c(-c4cccc(CN(C)C)c4)cc23)c(-c2ccc(NC(=O)N(C)C)cc2)n1" has cell viability of 0.994

CC(C)(C)c1cc(/C=C(\C#N)C(N)=S)cc(C(C)(C)C)c1O [Tyrphostin AG 879 (AG 879)] has a reported cell viability of 0.851

# molecule "Cn1cc(-c2ccc3nnc(Sc4ccc5ncccc5c4)n3n2)cn1" ; its cell viability = 0.983

# cell viability (molecule: "O=C(Nc1cccc(Nc2ncc(Br)c(NCCc3cnc[nH]3)n2)c1)N1CCCC1" ) is 1.07

For this molecule ( Cc1cc(Nc2cc(N3CCN(C)CC3)nc(Sc3ccc(NC(=O)C4CC4)cc3)n2)n[nH]1 [VX-680 (MK-0457, Tozasertib)] ), measured cell viability is 1.12

Entry under test: "CC(C)n1nc(-c2ccc3oc(N)nc3c2)c2c(N)ncnc21" . Its cell viability was 0.832

Form: molecule = "CS(=O)(=O)N1CCN(Cc2cc3nc(-c4cccc5[nH]ncc45)nc(N4CCOCC4)c3s2)CC1" ; cell viability = 0.998

Item: Cc1ccc(-n2nc(C(C)(C)C)cc2NC(=O)Nc2ccc(OCCN3CCOCC3)c3ccccc23)cc1 [BIRB 796 (Doramapimod)] | cell viability: 1.15

Field cell viability (entry CC(C)(C)c1cc(NC(=O)Nc2ccc(-c3cn4c(n3)sc3cc(OCCN5CCOCC5)ccc34)cc2)no1 [Quizartinib (AC220)] ) reads 0.994

get_value(item= CC[C@H](CO)Nc1nc(NCc2ccccc2)c2ncn(C(C)C)c2n1 [Roscovitine (Seliciclib, CYC202)] , readout=cell viability) returns 0.852

Recorded cell viability (molecule "CCCCCCCCCCCCc1ccc(S(=O)(=O)Nc2nncs2)cc1" ): 1.03

Reported cell viability of O=c1c(O)c(-c2ccc(O)c(O)c2)oc2cc(O)cc(O)c12 [Quercetin (Sophoretin)] : 1.19

For record "CC(=O)Nc1nc(C)c(-c2ccc(Cl)c(S(=O)(=O)NCCO)c2)s1" the listed cell viability is 0.939

Quick note, cell viability for "O=C(Nc1c[nH]nc1-c1nc2ccc(CN3CCOCC3)cc2[nH]1)NC1CC1" landed at 0.842

cell viability in this record for "CCS(=O)(=O)c1cccc(-c2cc(C(=O)NC3CCN(C)CC3)c(C)c3[nH]c4ncc(C)cc4c23)c1" : 1.06

Lookup result for "N#Cc1c(O)c2c(-c3ccc(-c4ccccc4O)cc3)csc2[nH]c1=O" ; measured cell viability: 1.13

# cell viability of O=C1NC(=O)C(=Cc2ccc(-c3ccc(F)cc3)o2)S1 (stereo in doubt) = 1.08

Value of measured cell viability for the entry "Cc1ccc(NC(=O)c2cccc(C(C)(C)C#N)c2)cc1Nc1ccc2ncn(C)c(=O)c2c1" : 1.21

Form: molecule = CNC(=O)c1ccccc1Sc1ccc2c(/C=C/c3ccccn3)n[nH]c2c1 [Axitinib] ; cell viability = 0.986

Given item "CCN(CC)CCCCNc1ncc2cc(-c3cc(OC)cc(OC)c3)c(NC(=O)NC(C)(C)C)nc2n1" , the value recorded as its cell viability is 0.835

====

Test system: SW480
Assay: TCF/Wnt firefly luciferase reporter signal relative to plate median (fraction of plate median); higher = higher Wnt reporter signal
Conditions: 5 µM; treatment time 24 h; reporter: 7TFP
Record form. Attribute: TCF/Wnt firefly luciferase reporter signal. Fill in for each entry.

Noted TCF/Wnt firefly luciferase reporter signal for "CC(=O)Oc1ccc(C(c2ccc(OC(C)=O)cc2)c2ccccn2)cc1" , tested on SW480: 1.03

With SW480 as the test system, "O=C(Cc1ccccc1)NO" showed TCF/Wnt firefly luciferase reporter signal of 0.869

Summary: "Cc1cc(-n2c(=O)[nH]c(=O)n(C)c2=O)ccc1Oc1ccc(SC(F)(F)F)cc1" , SW480, TCF/Wnt firefly luciferase reporter signal = 1.04

With SW480 as the test system, CCC(O)CC1CCC(C(C)C(=O)OC(C)CC2CCC(C(C)C(=O)O)O2)O1 (centres undefined) [Bonactin] showed TCF/Wnt firefly luciferase reporter signal of 0.87

====

System: SW480
Test: cell viability (CellTiter-Glo) relative to plate median (fraction of plate median); higher = more viable cells
Settings: 5 µM; treatment time 24 h; reporter: 7TFP
Property: cell viability
Would you mind answering with just the numeric figure?

Input CC1(C)C(=O)C=C[C@@]2(C)C1CC(=O)[C@@]1(C)C3=CC(=O)O[C@@H](c4ccoc4)[C@]3(C)CCC12 (some centres not stated) . Output cell viability: 0.977

Reported cell viability for CCOC(=O)OC(C)OC(=O)[C@@H]1N2C(=O)[C@@H](NC(=O)[C@H](N)c3ccccc3)[C@H]2SC1(C)C (some centres not stated) was 1.01

// cell viability lookup, molecule = "CCCCCCCC/C=C/CCCCCCCCOP(=O)([O-])OCC[N+](C)(C)C" , result: 1.02

According to the records, this molecule "CCS(=O)(=O)CCn1c([N+](=O)[O-])cnc1C" displays cell viability of 1.01

Lab note: "O=c1cc(-c2ccc(O)cc2)oc2cc(O)ccc12" gave cell viability of 0.987

# cell viability of "CCOC(=O)CCC(=O)O[C@H]1[C@H](O[C@@H]2[C@@H](C)[C@H](O[C@H]3C[C@@](C)(OC)[C@@H](O)[C@H](C)O3)[C@@H](C)C(=O)O[C@H](CC)[C@@](C)(O)[C@H](O)[C@@H](C)C(=O)[C@H](C)C[C@@]2(C)O)O[C@H](C)C[C@@H]1N(C)C" = 1.01

Kindly note the recorded cell viability for "O=C(O)c1cc(O)c(=O)c2c(O)c(O)ccc2c1" , which is 1.01

The value of cell viability measured for the molecule CC(=O)O[C@@H]1CC2C(C)(C)[C@H](O)C[C@H](O)[C@@]2(C)C2CC[C@]3(C)C(=CC(=O)O[C@@H]3c3ccoc3)[C@]21C (some centres not stated) turned out to be 0.982

Record "C[C@H]1[C@H](C)CC[C@]2(CO)CC[C@]3(C)C(=CC[C@@H]4[C@@]5(C)CC[C@H](O)C(C)(C)[C@@H]5CC[C@]43C)[C@H]12" , field cell viability: 1

Measured cell viability of "O=C(Cn1ccnc1[N+](=O)[O-])NCCO" : 0.994

Summary for this molecule, "CC1(C)CC[C@]2(C(=O)O)CC[C@]3(C)C(=CC[C@@H]4[C@@]5(C)CC[C@H](O)C(C)(C)[C@@H]5[C@H](O)C[C@]43C)[C@@H]2C1" : cell viability is 0.992

Record "CC(C)(C)NC[C@H](O)COc1nsnc1N1CCOCC1" . Reported cell viability: 0.971

The recorded cell viability for "NC(=O)c1ncn([C@@H]2O[C@H](CO)[C@@H](O)[C@H]2O)n1" is 1.01

Form field cell viability, entry "CCCCC(=O)O[C@H]1CC[C@H]2[C@@H]3CCc4cc(O)ccc4[C@H]3CC[C@]12C" : 1

Measured cell viability, "CC/C(=C(/CC)c1ccc(O)cc1)c1ccc(O)cc1" : 0.982

// cell viability value for CC(C(=O)O)c1ccc(N2Cc3ccccc3C2=O)cc1 (configuration not stated) : 0.992

So for "C[C@@H]1NC(=O)[C@@H](N)CNC(=O)[C@H](C2CCNC(=N)N2)NC(=O)/C(=C/NC(N)=O)NC(=O)[C@H](CNC(=O)CC(N)CCCN)NC1=O.N=C1NCC[C@H]([C@@H]2NC(=O)/C(=C/NC(N)=O)NC(=O)[C@H](CNC(=O)C[C@@H](N)CCCN)NC(=O)[C@H](CO)NC(=O)[C@@H](N)CNC2=O)N1" , the logged cell viability turned out to be 0.996
